measurement name: melting point

Some solved entries appear below for comparison.
O=C1OCCN1c1cccc([N+](=O)[O-])c1 = 135 to 137 °C
O=C(O)c1ccccc1C(=O)N1CCCCC1 = 109 to 111 °C
O=C(O)C1CC(=O)N(c2ccccc2)C1 (configuration not stated) = 191 to 193 °C
CC(C)c1ccc(-c2noc(CCl)n2)cc1 = 50 to 52 °C
N#CCCN1C(=O)NC2(CCCC2)C1=O = 104 to 106 °C

Look up melting point for this compound: `Nc1cccc(Cl)c1-n1cncn1`
122 to 124 °C

Look up melting point for this compound: `COC(=O)C=Cc1ccc([N+](=O)[O-])cc1`
161 to 163 °C
